assay system: T1, biotinylated CXCR4-virus like particle (Integral Molecular, Lot INT-1793B) (human, UniProt P61073 1-352, VLP biotinylated, sites not stated)
T1 construct: also called hCXCR4 VLP; CXCR4 VLP
T1 sequence (P61073 whole entry): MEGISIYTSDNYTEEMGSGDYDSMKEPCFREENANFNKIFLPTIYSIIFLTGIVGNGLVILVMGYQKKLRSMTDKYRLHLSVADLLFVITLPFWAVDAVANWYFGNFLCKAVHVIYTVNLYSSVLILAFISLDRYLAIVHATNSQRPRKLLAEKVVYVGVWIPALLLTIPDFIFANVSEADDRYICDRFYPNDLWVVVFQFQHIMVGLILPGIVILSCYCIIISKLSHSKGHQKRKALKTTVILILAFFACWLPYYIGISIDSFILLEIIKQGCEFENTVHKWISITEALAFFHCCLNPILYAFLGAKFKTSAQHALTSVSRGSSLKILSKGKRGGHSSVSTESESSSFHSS
method summary: SPR (Biacore 8K), biotinylated CXCR4 VLP captured on SA chip, Fab as analyte, 25 C, 1:1 model
property measured: kon (M⁻¹ s⁻¹)
Numbers only, in M⁻¹ s⁻¹.

binder | reading unit | kon
CL-82558 Fab fragment (Fab, V domains shown, Purified Fab fragment) VH: QVQLQESGPGLVKPSQTLSLTCTVSGGSISSGGYYWSWIRQVPGKGLEWIGYISYSGNTFYSPSLKSRVTISVDTSENKFSLRLTSVTAADTAVYFCARDRRIPMLRGVKGYYYGLDVWGQGTTVTVSS VL: DIVMTQSPLSLPVIPGEPASISCRSSQSLLHRNGYKYLDWYLQKPGQSPQLLIYLGSNRASGVPARFSGSGSGTDFTLKISRVEAEDVGVYYCMQALQTPWTFGQGTKVEIK | M⁻¹ s⁻¹ | 2.32e+06

Next binder, please.
Field request: kon | item: CL-82574 Fab fragment (Fab, V domains shown, Purified Fab fragment) VH: QVQLVESGGGVVQPGRSLRLSCAASGFTFYSYGMHWVRQAPGKGLEWVAVIWYGGTNKYYADSVKGRFTISRDNSKNTLYLQMNSLTAEDTAVYYCARGQLERRRGGLNIWGQGTVVTVSS VL: DIQMTQSPSSLSASVGDRVTITCRASQGVRDDLGWYQQKPGKAPKRLIYAASSLQSGVPSRFSGSGSGTEFTLTISSLQPEDFATYYCLQHNSYPFTFGPGTKVDIK
927000

These measurements were taken from patent US20240294651A1.
